TARGET_SYSTEM: UniProt:P49650
ASSAY_NAME: [125I]MRS2500 binding assay with intact washed mouse platelets
CONDITION_LABEL: read-out: Kd, saturation binding of [125I]MRS2500; mouse platelets, 20°C; data not shown
TEST_READOUT: Kd (nM)
Give just the numeric value; nM need not be written.

Reported Kd of CNc1nc(I)nc2c1ncn2[C@H]1C[C@H](OP(=O)(O)O)[C@]2(COP(=O)(O)O)C[C@H]12 [[^125I]MRS2500] : 0.5

====

TARGET_SYSTEM: human P2Y1 receptor (Homo sapiens)
Sequence (P47900 whole entry): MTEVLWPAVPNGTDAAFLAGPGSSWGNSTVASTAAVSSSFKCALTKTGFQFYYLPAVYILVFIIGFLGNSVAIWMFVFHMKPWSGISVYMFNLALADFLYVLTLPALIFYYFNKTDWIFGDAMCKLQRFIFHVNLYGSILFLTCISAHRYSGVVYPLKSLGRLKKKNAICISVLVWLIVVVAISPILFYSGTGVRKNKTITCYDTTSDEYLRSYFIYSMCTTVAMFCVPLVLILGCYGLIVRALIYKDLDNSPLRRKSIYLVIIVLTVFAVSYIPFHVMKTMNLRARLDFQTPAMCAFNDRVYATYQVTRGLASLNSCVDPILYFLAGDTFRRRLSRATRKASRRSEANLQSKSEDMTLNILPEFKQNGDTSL
CONDITION_LABEL: read-out: Kd, saturation binding of [125I]MRS2500; P2Y1 receptor-expressing Sf9 membranes, 4°C, one-site binding
TEST_READOUT: Kd
A complete answer gives the number followed by the unit.

Field Kd (human P2Y1 receptor (Homo sapiens)), entry CNc1nc(I)nc2c1ncn2[C@H]1C[C@H](OP(=O)(O)O)[C@]2(COP(=O)(O)O)C[C@H]12 [[^125I]MRS2500] : 1.1 nM

====

Please respond with reported Ki for every item in the list.
The reply should be a number in µM, with the unit left off.

The compound Nc1ncnc2c1ncn2[C@@H]1O[C@H](COP(=O)(O)OP(=O)(O)O)[C@@H](O)[C@H]1O [ADP, reference compound] on human P2Y1 receptor (Homo sapiens, UniProt P47900): Ki was 0.625

human P2Y1 receptor (Homo sapiens, UniProt P47900) assay, compound Nc1ncnc2c1ncn2[C@@H]1O[C@H](COP(=O)(O)OP(O)(O)=S)[C@@H](O)[C@H]1O [ADP!S, reference compound] , recorded Ki = 1.75

====

TARGET_SYSTEM: P2Y1 receptors on mouse platelets (Mus musculus, UniProt P49650)
Sequence (P49650 whole entry): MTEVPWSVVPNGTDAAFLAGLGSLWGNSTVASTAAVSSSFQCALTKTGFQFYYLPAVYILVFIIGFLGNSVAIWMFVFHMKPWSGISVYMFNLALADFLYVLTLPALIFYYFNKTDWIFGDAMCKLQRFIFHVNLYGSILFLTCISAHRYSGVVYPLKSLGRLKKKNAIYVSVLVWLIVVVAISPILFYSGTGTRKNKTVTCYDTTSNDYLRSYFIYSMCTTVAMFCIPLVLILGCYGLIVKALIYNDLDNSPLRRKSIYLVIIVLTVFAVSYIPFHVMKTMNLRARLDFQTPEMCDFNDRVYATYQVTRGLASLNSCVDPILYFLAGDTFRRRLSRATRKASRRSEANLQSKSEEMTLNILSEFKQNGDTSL
ASSAY_NAME: [125I]MRS2500 binding assay with intact washed mouse platelets
CONDITION_LABEL: wild-type mouse platelets, 10 μM competitor

MOLECULE	TARGET_SYSTEM	effect on [125I]MRS2500 binding
CSc1nc(N)c2ncn([C@@H]3O[C@H](COP(=O)(O)OP(=O)(O)O)[C@@H](O)[C@H]3O)c2n1 [2MeSADP, 2-methylthio-adenosine 5′-diphosphate, reference compound]	P2Y1 receptors on mouse platelets (Mus musculus, UniProt P49650)	inhibited
CNc1ncnc2c1ncn2[C@H]1C[C@H](OP(=O)(O)O)[C@@H](COP(=O)(O)O)O1 [MRS2179]	P2Y1 receptors on mouse platelets (Mus musculus, UniProt P49650)	inhibited
CSc1nc(N)c2ncn([C@H]3[C@H](O)[C@H](O)[C@@]4(COP(=O)(O)OP(=O)(O)O)C[C@H]34)c2n1 [MRS2365]	P2Y1 receptors on mouse platelets (Mus musculus, UniProt P49650)	inhibited
